The measured values listed here are drawn from the supplement of paper PMC12645437.

assayedTarget: T1, CRBN, Q96SW2;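 further: pooled lentiviral library of zinc finger degron-EGFP fusions in mCherry-positive Jurkat cells, FACS-sorted after compound exposure, with degron abundance counted by next-generation sequencing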
T1 chain: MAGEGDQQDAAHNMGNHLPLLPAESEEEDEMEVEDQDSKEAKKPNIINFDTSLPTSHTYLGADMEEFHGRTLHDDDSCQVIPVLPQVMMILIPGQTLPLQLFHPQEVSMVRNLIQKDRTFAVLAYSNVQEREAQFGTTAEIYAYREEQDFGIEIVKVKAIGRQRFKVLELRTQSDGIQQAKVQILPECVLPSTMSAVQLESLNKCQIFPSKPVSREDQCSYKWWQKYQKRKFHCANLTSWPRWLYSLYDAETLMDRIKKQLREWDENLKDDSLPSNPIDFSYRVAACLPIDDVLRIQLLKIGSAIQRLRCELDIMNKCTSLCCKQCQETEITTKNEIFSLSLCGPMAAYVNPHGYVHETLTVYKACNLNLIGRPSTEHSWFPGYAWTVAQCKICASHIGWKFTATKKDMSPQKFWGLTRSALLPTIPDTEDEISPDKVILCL
runDescription: log2 fold change of degron read counts, EGFP-low vs EGFP+ sorted cells (limma voom), compound-induced degradation; higher = more compound-induced degradation of the degron-EGFP fusion; degrons are variants of IKZF1/3 zinc finger 2; compound dose not given here
assaySetup: Jurkat; 18 h; compound: compound 33 (diphenyl IMiD analogue)
In all, about 8,300 sequences were measured (“log2 fold change of degron read counts, EGFP-low vs EGFP+ sorted cells (limma voom), compound-induced degradation”: median about -1.1, highest 2% from about 3.2 on). The entries come from a sample that favours the highest values as a whole.
assayReadout: log2 fold change of degron read counts

Qu. Look at this sequence and give its reported log2 fold change of degron read counts. FVCNQCGHYFTQKGNLLRHIKL [46F_47V_49N_50Q_52G_53H_54Y_55F_67L_, Q9UKT9]
Ans. -2.73

Qu. Okay, and LACPICGFYCTQKGNLLRHIKL [46L_47A_49P_50I_52G_53F_54Y_55C_67L_, Q9UKT9] ?
Ans. 2.52

Qu. Okay, and LDCPICGFYCTQKGNLLRHIKL [46L_47D_49P_50I_52G_53F_54Y_55C_67L_, Q9UKT9] ?
Ans. 1.46

Qu. Param item: LGCPICGFYCTQKGNLLRHIKL [46L_47G_49P_50I_52G_53F_54Y_55C_67L_, Q9UKT9]
Ans. 2.46

Qu. Then this sequence: LFCPICGFYCTQKGNLLRHIKL [46L_47F_49P_50I_52G_53F_54Y_55C_67L_, Q9UKT9]
Ans. 2.34

Qu. Let us now turn to LHCPICGFYCTQKGNLLRHIKL [46L_47H_49P_50I_52G_53F_54Y_55C_67L_, Q9UKT9]
Ans. 2.85

Qu. Next: LICPICGFYCTQKGNLLRHIKL [46L_47I_49P_50I_52G_53F_54Y_55C_67L_, Q9UKT9]
Ans. 1.99

Qu. Consider next the sequence LCCPICGFYCTQKGNLLRHIKL [46L_47C_49P_50I_52G_53F_54Y_55C_67L_, Q9UKT9] in the same way.
Ans. 3.16

Qu. Likewise for LSCPICGFYCTQKGNLLRHIKL [46L_47S_49P_50I_52G_53F_54Y_55C_67L_, Q9UKT9] ?
Ans. 2.92

Qu. Next sequence: LVCPICGFYCTQKGNLLRHIKL [46L_47V_49P_50I_52G_53F_54Y_55C_67L_, Q9UKT9]
Ans. 2.2

Qu. Another sequence to look at: LWCPICGFYCTQKGNLLRHIKL [46L_47W_49P_50I_52G_53F_54Y_55C_67L_, Q9UKT9]
Ans. 2.86
